# ASSAY_OVERVIEW: TLR3 IRF3 reporter activation blockers – cell-based, poly I:C stimulus, luciferase, 10K MLSCN set, primary screen (AID 602277)
# TEST_CONTEXT: HEK293-TLR3 RL24 IRF3 luciferase reporter, at 10 µM, stronger effect = higher value
ASSAY_ENDPOINT: inhibition (%)
Report only the number, with the unit % understood.

Some entries whose results are on file:
>  <COMPOUND>
CCCCn1nc(C(=O)N2CCc3ccccc32)c2ccccc2c1=O

>  <inhibition [%]>
20.2

$$$$
>  <COMPOUND>
COC(=O)CSc1nc2ncc(Cl)cc2[nH]1

>  <inhibition [%]>
25.3

$$$$
>  <COMPOUND>
O=C(Nc1ccccc1-c1ccccc1)NC1CCN(CC(=O)N2CCOCC2)CC1

>  <inhibition [%]>
27.5

$$$$
>  <COMPOUND>
CCCS(=O)(=O)N1CCCC(C(=O)NC(C)c2ccc3c(c2)OCCO3)C1 (stereo unspecified)

>  <inhibition [%]>
13.6

$$$$
>  <COMPOUND>
CCCCn1nnc(NC(=O)Cc2ccc(Cl)cc2)n1

>  <inhibition [%]>
19.5

$$$$

// inhibition lookup, key: CC(=O)N(C)C1(c2nnnn2CCOC(=O)Nc2ccc(Cl)cc2)CCCCC1
20.6

Can you check Cc1ccc(NC(=O)CSc2nnc(CNC(=O)c3c(F)cccc3Cl)o2)cc1 next?
10.9

Next entry: COc1cccc(-c2nnn(CC(=O)O)n2)c1
43.8

Next: COCCn1c(C)cc(C(=O)COC(=O)c2n[nH]c3ccccc23)c1C
49.1

Can you handle CCC(C)(C(=O)NC1CCCC1)N(Cc1cccs1)C(C)=O (stereo unspecified) next?
24.4

Okay, and Cc1noc(C)c1S(=O)(=O)N1CCN(Cc2ccc3c(c2)OCO3)CC1 ?
18.3

Next: CC(C)Cn1c(CN(Cc2ccccc2)Cc2ccccc2)nc2c1c(=O)n(C)c(=O)n2C
12.9

====

# ASSAY_OVERVIEW: inhibitors of TNFa-induced NFkB p65 translocation, primary screen, imaging, HUVEC, MLSMR starter and 10KST1 sets (AID 438);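 also: compound added about 3h40 before a 20 min TNFalpha stimulation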;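 as to inhibition: signal is the nuclear over cytoplasmic p65 intensity ratio per well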
# TEST_CONTEXT: HUVEC TNFa-induced p65 nuclear translocation; at 2 µM, stronger effect = higher value, 0% TNFa-plus-vehicle, 100% no-TNFa wells
ASSAY_ENDPOINT: inhibition (%)
Numeric answer only, unit % assumed.

Sample CCN(CC)c1ccc2cc(-c3nc4ccccc4[nH]3)c(=O)oc2c1 — what was its inhibition?
11.7

What do you have for CCc1c(C)nc2ncnn2c1NCCc1ccc(OC)c(OC)c1 ?
-1.6

====

# ASSAY_OVERVIEW: inhibitors of TNFa-induced NFkB p65 translocation, primary screen, imaging, HUVEC, MLSMR starter and 10KST1 sets (AID 438);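 also: compound added about 3h40 before a 20 min TNFalpha stimulation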
# TEST_CONTEXT: HUVEC TNFa-induced p65 nuclear translocation; measured here: nuclei count (cytotoxicity indicator), at 2.08 µM
Measured cell count of individual entries
Keep it simple and answer with nothing but the number.

Solved cases (2 shown):
>  <SMILES_REPRESENTATION>
COCCN(CCOC)Cc1c(C)[nH]c2ccccc2c1=O

>  <cell count>
398

$$$$
>  <SMILES_REPRESENTATION>
COc1ccc(CCn2c(NCCCN3CCOCC3)nc3c2c(=O)[nH]c(=O)n3C)cc1

>  <cell count>
395

$$$$

Could you now consider this next molecule?
Requested read-out: cell count. Entry: Cc1cc(C)c2ccc(N)nc2c1O
408
